System: SK-MEL-5
Assay: NCI-60 one-dose SRB screening
Type: cell-based
Conditions: Homo sapiens, SK-MEL-5, Melanoma, 10 µM one dose, 48 h, read-out: growth percentage
Description: The structures of the synthesized compounds 6a–h, 12a–c, 11, 13a–c, and 14a–c were submitted to the National Cancer Institute’s Developmental Therapeutics Program (NCI-DTP), and all of them were selected for preliminary in vitro anticancer activity screening against NCI-59 human cancer cell lines at a concentration of 10 µM, using the sulforhodamine B (SRB) assay to determine the growth percentage and cell viability. […]
parameter.measured: activity at 10 µM (%)
Only the number, expressed in %, is required.

QUERY: State the recorded activity at 10 µM for this entry: Cc1nc(Nc2ccc(OCc3c(-c4ccccc4)no[n+]3[O-])cc2)c2c(C)nn(-c3ccccc3)c2n1 [6d]
RESULT: 98

QUERY: Which activity at 10 µM value is on record for Cc1nn(-c2ccccc2)c2ncnc(Nc3ccc(OCc4c(-c5ccccc5)no[n+]4[O-])cc3)c12 [6c] ?
RESULT: 90.4

QUERY: activity at 10 µM lookup needed for [O-][n+]1onc(-c2ccccc2)c1CNc1ccc(Nc2nc(C(F)(F)F)nc3c2cnn3-c2ccc(Br)cc2)cc1 [12b] , thanks.
RESULT: 86

QUERY: Give its activity at 10 µM value. Item: Cc1nc(Nc2ccc(OCc3c(-c4ccccc4)no[n+]3[O-])cc2)c2c(C)nn(-c3ccc(Br)cc3)c2n1 [6h]
RESULT: 91.5

QUERY: Sample Cc1nn(-c2ccc(Br)cc2)c2nc(C(F)(F)F)nc(Nc3ccc(NCc4c(-c5ccccc5)no[n+]4[O-])cc3)c12 [12c] — what was its activity at 10 µM?
RESULT: 61.7

QUERY: What value of measured activity at 10 µM is listed for Cc1nn(-c2ccccc2)c2nc(C(F)(F)F)nc(Nc3ccc(NCc4c(-c5ccccc5)no[n+]4[O-])cc3)c12 [12a] ?
RESULT: 70.3

QUERY: Item under review: O=c1[nH]c(CCl)nc2c1cnn2-c1ccccc1 [13a] . Reported activity at 10 µM?
RESULT: 107

QUERY: What value of activity at 10 µM has been recorded for this entry: Cc1nn(-c2ccccc2)c2nc(CNc3ccc(NCc4c(-c5ccccc5)no[n+]4[O-])cc3)[nH]c(=O)c12 [14b]
RESULT: 108

QUERY: Please report the recorded activity at 10 µM for [O-][n+]1onc(-c2ccccc2)c1COc1ccc(Nc2ncnc3c2cnn3-c2ccc(Br)cc2)cc1 [6e] .
RESULT: 95.9

QUERY: // lookup activity at 10 µM for Cc1nc(Nc2ccc(OCc3c(-c4ccccc4)no[n+]3[O-])cc2)c2cnn(-c3ccccc3)c2n1 [6b]
RESULT: 103

* * *

test system: IGROV1; assay: NCI-60 one-dose SRB screening; format: cell-based; details: Homo sapiens, IGROV-1, IGROV1, Ovarian Cancer, 10 µM one dose, 48 h, read-out: growth percentage
parameter.measured: activity at 10 µM
The reply should read as a number followed by its unit.

QUERY: Record lookup: for IGROV1, what activity at 10 µM belongs to O=c1[nH]c(CCl)nc2c1cnn2-c1ccccc1 [13a] ?
RESULT: 96.2%

QUERY: Write down the reported activity at 10 µM of Cc1nn(-c2ccccc2)c2nc(CCl)[nH]c(=O)c12 [13b] , test system: IGROV1.
RESULT: 96.2%

QUERY: Lab note: need activity at 10 µM for Cc1nc(Nc2ccc(OCc3c(-c4ccccc4)no[n+]3[O-])cc2)c2c(C)nn(-c3ccccc3)c2n1 [6d] on IGROV1, anyone have it?
RESULT: 106%

QUERY: Entry Cc1nn(-c2ccccc2)c2nc(C(F)(F)F)nc(Nc3ccc(NCc4c(-c5ccccc5)no[n+]4[O-])cc3)c12 [12a] , system IGROV1: what activity at 10 µM was measured?
RESULT: 77.9%

QUERY: API: value(readout=activity at 10 µM, system=IGROV1) for record Cc1nn(-c2ccc(Br)cc2)c2nc(C(F)(F)F)nc(Nc3ccc(NCc4c(-c5ccccc5)no[n+]4[O-])cc3)c12 [12c]
RESULT: 59.6%

QUERY: For the record Cc1nn(-c2ccc(Br)cc2)c2nc(CNc3ccc(NCc4c(-c5ccccc5)no[n+]4[O-])cc3)[nH]c(=O)c12 [14c] , what value of activity at 10 µM is listed for IGROV1?
RESULT: 85.6%

QUERY: Lookup: activity at 10 µM / IGROV1 / Cc1nn(-c2ccc(Br)cc2)c2nc(CCl)[nH]c(=O)c12 [13c]
RESULT: 95.1%

QUERY: For the record [O-][n+]1onc(-c2ccccc2)c1COc1ccc(Nc2ncnc3c2cnn3-c2ccccc2)cc1 [6a] , what value of activity at 10 µM is listed for IGROV1?
RESULT: 95%

* * *

test system: HL-60(TB); test: NCI-60 one-dose SRB screening; format: cell-based; settings: Homo sapiens, Leukemia, 10 µM one dose, 48 h, read-out: growth percentage
Exercise: for every item that follows, state its recorded activity at 10 µM.
Your reply should be a number followed by the unit it is expressed in.

QUERY: For the compound shown here, `Cc1nc(Nc2ccc(OCc3c(-c4ccccc4)no[n+]3[O-])cc2)c2c(C)nn(-c3ccc(Br)cc3)c2n1` , give the reported activity at 10 µM.
RESULT: 70.8%

QUERY: Suppose we examine the compound `[O-][n+]1onc(-c2ccccc2)c1COc1ccc(Nc2ncnc3c2cnn3-c2ccc(Br)cc2)cc1` ; what activity at 10 µM value has been reported?
RESULT: 96.1%

QUERY: Would you mind telling me what activity at 10 µM value was observed for `Cc1nc(Nc2ccc(OCc3c(-c4ccccc4)no[n+]3[O-])cc2)c2cnn(-c3ccccc3)c2n1` ?
RESULT: 122%

QUERY: I am curious: what activity at 10 µM value has been reported for O=c1[nH]c(CNc2ccc(NCc3c(-c4ccccc4)no[n+]3[O-])cc2)nc2c1cnn2-c1ccccc1 [14a] ?
RESULT: 63.1%

QUERY: Would you mind telling me what activity at 10 µM value was observed for `Nc1ccc(NCc2c(-c3ccccc3)no[n+]2[O-])cc1` ?
RESULT: 95.5%

QUERY: So what's the measured activity at 10 µM for this one? [O-][n+]1onc(-c2ccccc2)c1CNc1ccc(Nc2nc(C(F)(F)F)nc3c2cnn3-c2ccc(Br)cc2)cc1 [12b]
RESULT: 79.8%

QUERY: Entry under review: O=c1[nH]c(CCl)nc2c1cnn2-c1ccccc1 [13a] . Reported activity at 10 µM?
RESULT: 109%

QUERY: Any idea what its activity at 10 µM is? The compound is Cc1nn(-c2ccc(Br)cc2)c2nc(CNc3ccc(NCc4c(-c5ccccc5)no[n+]4[O-])cc3)[nH]c(=O)c12 [14c]
RESULT: 103%

QUERY: What does the record list as activity at 10 µM for Cc1nn(-c2ccccc2)c2nc(CNc3ccc(NCc4c(-c5ccccc5)no[n+]4[O-])cc3)[nH]c(=O)c12 [14b] ?
RESULT: 93.7%

* * *

I'd be grateful if you could share measured activity at 10 µM for these entries.
system: HT29; test: NCI-60 one-dose SRB screening; assay type: cell-based; conditions: Homo sapiens, HT-29, HT29, Colon Cancer, 10 µM one dose, 48 h, read-out: growth percentage
Only the number, expressed in %, is required.

QUERY: For the molecule shown here, `[O-][n+]1onc(-c2ccccc2)c1COc1ccc(Nc2ncnc3c2cnn3-c2ccccc2)cc1` , give the reported activity at 10 µM.
RESULT: 96

QUERY: Could you share which activity at 10 µM value was measured for `Cc1nc(Nc2ccc(OCc3c(-c4ccccc4)no[n+]3[O-])cc2)c2cnn(-c3ccccc3)c2n1` ?
RESULT: 106

QUERY: activity at 10 µM lookup needed for `Cc1nn(-c2ccccc2)c2ncnc(Nc3ccc(OCc4c(-c5ccccc5)no[n+]4[O-])cc3)c12` , thanks.
RESULT: 93.2

QUERY: # activity at 10 µM lookup, item O=c1[nH]c(CCl)nc2c1cnn2-c1ccccc1 [13a]
RESULT: 115

QUERY: Can you look up the measured activity at 10 µM of Cc1nn(-c2ccc(Br)cc2)c2nc(C(F)(F)F)nc(Nc3ccc(NCc4c(-c5ccccc5)no[n+]4[O-])cc3)c12 [12c] for me?
RESULT: 70.4

QUERY: Give the measured activity at 10 µM of `[O-][n+]1onc(-c2ccccc2)c1COc1ccc(Nc2ncnc3c2cnn3-c2ccc(Br)cc2)cc1` .
RESULT: 94.5

QUERY: Please give the measured activity at 10 µM for this molecule: `Cc1nc(Nc2ccc(OCc3c(-c4ccccc4)no[n+]3[O-])cc2)c2cnn(-c3ccc(Br)cc3)c2n1`
RESULT: 97.3

QUERY: So what does the record say about activity at 10 µM for O=c1[nH]c(CNc2ccc(NCc3c(-c4ccccc4)no[n+]3[O-])cc2)nc2c1cnn2-c1ccccc1 [14a] ?
RESULT: 92

QUERY: Please give the measured activity at 10 µM for this molecule: `Nc1ccc(NCc2c(-c3ccccc3)no[n+]2[O-])cc1`
RESULT: 111

QUERY: Which activity at 10 µM reading was recorded for the molecule [O-][n+]1onc(-c2ccccc2)c1CNc1ccc(Nc2nc(C(F)(F)F)nc3c2cnn3-c2ccc(Br)cc2)cc1 [12b] ?
RESULT: 43.9

QUERY: Which activity at 10 µM value is on record for Cc1nn(-c2ccccc2)c2nc(CNc3ccc(NCc4c(-c5ccccc5)no[n+]4[O-])cc3)[nH]c(=O)c12 [14b] ?
RESULT: 107

QUERY: Bench note: what activity at 10 µM did Cc1nn(-c2ccccc2)c2nc(C(F)(F)F)nc(Nc3ccc(NCc4c(-c5ccccc5)no[n+]4[O-])cc3)c12 [12a] show?
RESULT: 61.5

QUERY: Param item = `Cc1nc(Nc2ccc(OCc3c(-c4ccccc4)no[n+]3[O-])cc2)c2c(C)nn(-c3ccc(Br)cc3)c2n1` ; retrieve measured activity at 10 µM.
RESULT: 90

QUERY: What value of activity at 10 µM has been reported for the following molecule? Cc1nn(-c2ccccc2)c2nc(CCl)[nH]c(=O)c12 [13b]
RESULT: 106

QUERY: # activity at 10 µM lookup, item Cc1nn(-c2ccc(Br)cc2)c2nc(CNc3ccc(NCc4c(-c5ccccc5)no[n+]4[O-])cc3)[nH]c(=O)c12 [14c]
RESULT: 110

QUERY: So what does the record say about activity at 10 µM for `Cc1nc(Nc2ccc(OCc3c(-c4ccccc4)no[n+]3[O-])cc2)c2c(C)nn(-c3ccccc3)c2n1` ?
RESULT: 119

QUERY: Can you share its activity at 10 µM? I mean this molecule: `Cc1nn(-c2ccc(Br)cc2)c2ncnc(Nc3ccc(OCc4c(-c5ccccc5)no[n+]4[O-])cc3)c12`
RESULT: 101

QUERY: What value of measured activity at 10 µM is listed for Cc1nn(-c2ccc(Br)cc2)c2nc(CCl)[nH]c(=O)c12 [13c] ?
RESULT: 104

Values from paper PMC8880564
